For each record, write down the corresponding drug sensitivity score.
Test system: UT-SCC-8
Test: drug sensitivity score (DSS); higher = more sensitive; extreme values may be limits of the assay
Details: culture condition: on top of Myogel; treatment time: 3 days
Give bare numbers, in DSS.

Please look at the items below and tell me drug sensitivity score for each one, in order.
1. COc1ccc(-c2cc3c(C)nc(N)nc3n([C@H]3CC[C@H](OCCO)CC3)c2=O)cn1
2. C=CC(=O)Nc1cc2c(Nc3ccc(F)c(Cl)c3)ncnc2cc1OCCCN1CCOCC1
3. CO[C@H]1C[C@@H]2CC[C@@H](C)[C@@](O)(O2)C(=O)C(=O)N2CCCC[C@H]2C(=O)O[C@H]([C@H](C)C[C@@H]2CC[C@@H](OP(C)(C)=O)[C@H](OC)C2)CC(=O)[C@H](C)/C=C(\C)[C@@H](O)[C@@H](OC)C(=O)[C@H](C)C[C@H](C)/C=C/C=C/C=C/1C
4. Cn1cnc2c(F)c(Nc3ccc(Br)cc3Cl)c(C(=O)NOCCO)cc21
5. C#Cc1cccc(Nc2ncnc3cc(OCCOC)c(OCCOC)cc23)c1
6. CN(C)C/C=C/C(=O)Nc1cc2c(Nc3ccc(F)c(Cl)c3)ncnc2cc1O[C@H]1CCOC1
7. COc1ncc(-c2ccc3nccc(-c4ccnnc4)c3c2)cc1NS(=O)(=O)c1ccc(F)cc1F

**Result**
10.9
11.6
12.5
10.3
3.4
8.37
23.7
